The values you see were collected from the supplement of paper PMC10065799.

Each item that follows carries a reported phosphorylation enrichment.
molecular target: FGFR3 (UniProt P22607); experiment: phosphorylation enrichment, bacterial display (enrichment ratio); higher = better substrate or ligand; peptides without Tyr show the background;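 further: 11-residue human phosphosite peptides and single-mutation variants displayed on the E. coli surface, counted by deep sequencing, each peptide's frequency after selection divided by its frequency in the unselected input library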;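 further: frequency after pTyr selection over input frequency; kinase dosed for 20-30% of maximal phosphorylation in three min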
Sequence (P22607 whole entry, looked up): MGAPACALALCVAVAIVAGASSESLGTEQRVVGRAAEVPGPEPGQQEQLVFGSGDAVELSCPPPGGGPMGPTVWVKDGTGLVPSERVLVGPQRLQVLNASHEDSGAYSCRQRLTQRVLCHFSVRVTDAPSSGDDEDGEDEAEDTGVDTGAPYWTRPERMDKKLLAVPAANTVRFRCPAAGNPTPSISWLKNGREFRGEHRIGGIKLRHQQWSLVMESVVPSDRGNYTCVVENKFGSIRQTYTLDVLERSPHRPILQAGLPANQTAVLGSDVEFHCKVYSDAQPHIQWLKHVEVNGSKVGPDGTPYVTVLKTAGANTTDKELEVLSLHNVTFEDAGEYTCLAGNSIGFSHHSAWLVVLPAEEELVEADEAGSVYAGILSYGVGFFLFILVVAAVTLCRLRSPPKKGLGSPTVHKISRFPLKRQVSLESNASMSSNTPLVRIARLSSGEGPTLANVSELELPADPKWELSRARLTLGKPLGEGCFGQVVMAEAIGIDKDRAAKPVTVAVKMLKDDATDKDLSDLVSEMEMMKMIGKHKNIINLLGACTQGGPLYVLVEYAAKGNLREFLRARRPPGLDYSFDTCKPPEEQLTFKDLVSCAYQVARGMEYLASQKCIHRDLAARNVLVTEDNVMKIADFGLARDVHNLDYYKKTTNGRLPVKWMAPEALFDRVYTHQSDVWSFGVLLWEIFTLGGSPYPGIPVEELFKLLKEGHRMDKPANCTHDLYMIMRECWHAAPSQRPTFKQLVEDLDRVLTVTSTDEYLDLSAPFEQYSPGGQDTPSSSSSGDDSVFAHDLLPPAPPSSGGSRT

seq	phosphorylation enrichment
CPFNLYAAQLS [HGD_Y40_E42A_YF]	0.816
KDHPDYKFQPR [SOX10_Y171_YF]	0.543
AKIDGYITSYR	0.556
YEDALYTVLHR [UNC13D_Y61]	3.1
YASALYRQRRS [FGF11_Y162]	0.58
GGGGGYNRSSG [FUS_Y232]	0.386
AGGTRYRFVSQ [UCN3_Y95_R91G_YF]	0.377
DPEATYTTSGG [EPHA2_Y772]	0.754
LSALDYKIFFF [WDPCP_Y210_YF]	0.833
AKLNIYKRKVE [VWA3B_Y918]	0.422
LEDDMYRKTCT [XPA_Y257]	1.67
IRTIDYRYTVS [IDS_Y497_W502S]	0.601
ASTDYNKRGDF [PDHA1_Y243_Y243N]	0.402
PLGKDYRKAEG [MAP1A_Y1909]	0.787
AEEPIYIIVPA [BMXtide_2014]	12.1

====

biological target: Fyn (UniProt P06241); assay: phosphorylation enrichment, bacterial display (enrichment ratio); higher = better substrate or ligand; peptides without Tyr show the background
Sequence (P06241 whole entry, looked up): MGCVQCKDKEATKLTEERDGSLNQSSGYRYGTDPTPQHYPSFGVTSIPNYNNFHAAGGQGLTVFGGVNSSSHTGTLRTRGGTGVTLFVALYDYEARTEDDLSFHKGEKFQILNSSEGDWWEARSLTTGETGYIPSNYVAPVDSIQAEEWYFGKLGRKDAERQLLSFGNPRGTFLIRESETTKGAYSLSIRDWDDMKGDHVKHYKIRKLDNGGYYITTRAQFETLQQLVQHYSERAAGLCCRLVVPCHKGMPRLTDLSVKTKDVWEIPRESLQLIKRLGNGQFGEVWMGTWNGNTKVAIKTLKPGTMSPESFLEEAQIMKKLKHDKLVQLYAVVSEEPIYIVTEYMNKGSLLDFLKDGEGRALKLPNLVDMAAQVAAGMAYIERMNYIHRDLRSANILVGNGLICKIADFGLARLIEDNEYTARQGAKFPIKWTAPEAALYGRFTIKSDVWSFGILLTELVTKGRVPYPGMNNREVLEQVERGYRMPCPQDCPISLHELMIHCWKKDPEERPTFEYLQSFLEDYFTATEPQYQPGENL
Each item that follows carries a reported phosphorylation enrichment.

seq	phosphorylation enrichment
DFFDLYGGQKF [PTPN11_Y66_E69Q_YF]	7.17
LVVFEYMRHGD [NTRK1_Y591_M587V]	0.46
GDKENYGLPQP [BUB1_Y538_N534D]	0.461
QLQQAYQEAFE [YWHAZ_Y149_S145L]	1.23
AAVLNYKAWRD [GRIN2A_Y737_G740W]	0.35
HNLDFYKETTN [FGFR3_Y648_K650E_YF]	0.731
LWPIWYRCHRP [MRGPRX1_Y130]	0.798
IHSGIYFKPES [L2HGDH_Y102_YF]	1.72
RNVLVYDKLNV [ROR2_Y624]	5.08
LEDDMYRKTCT [XPA_Y257]	1.78
PFRSIYFSSPK [MPG_Y75_YF]	0.658
LIDSSYLTRTA [GREB1L_Y1063]	0.571
VEDHYYEGGIG [TKT_Y564]	0.559
LSSEMCVKSFT [F5_Y2149_Y2149C_YF]	0.683
FISLIYTNFEA [GSTP1_Y109_YF]	4.29
HLVSEYQQFQD [TUBB3_Y422_D417H_YF]	0.577
THQKSYQPGRK [CEFIP_Y210_N208K]	0.371
QEGPEYWDQNT [HLA-A_Y83_E87N]	0.6
VKMLLYTEVTR [GDI1_Y93]	0.759
FPILNYKDIRK [CFAP221_Y798_M795I]	0.368
KGSEGYLAAIY [NF1_Y2503_T2507I]	0.8
SAVVPYEPPEV [TP53_Y220_V216A]	0.556
SREALYNEMDP [CACNA1A_Y794]	0.685
KGSLPYNLILD [PKD1L2_Y406]	0.438
FDNSVYQKTTE [LDLR_Y828_P826S]	0.515
TEDPEYDVQSK [PTCHD3_Y335]	0.616
PSELYYSKIGP [SMG1_Y2254]	8.78
ENGPYYASYPP [GDAP2_Y488_T489A]	6.13
NNRVFYGNSDC [RS1_Y177_R182C]	0.434
